Assay: gradient 5% acetonitrile 3 min, to 50% in 2 min, to 85% in 15 min, held 3 min, 100 µL/min
Conditions: column: Zorbax Extend-C18 2.1 x 50 mm; eluents: water / acetonitrile, 0.1% formic acid
Cut-off 1000 s on RP-LC retention time: below means yes, at or above means no.

q: Could you please tell me whether RP-LC retention time recorded for `Cc1ccc(-c2ncc3c(=O)n(Cc4ccc(F)cc4)c(=O)n(C)c3n2)cc1` is less than 1000 s?
a: no

q: // query: `COc1ccc(-c2ccc(=O)n(Cc3nc(-c4ccc(OC(C)C)cc4)no3)n2)cc1`
a: no

q: // query: NC(=O)C1CCN(C(=O)CN2c3ccccc3NC3=C(C(=O)CCC3)C2c2cccs2)CC1 (stereo not given)
a: yes

q: // query: `O=C([C@H]1C[C@@H](F)CN1S(=O)(=O)c1cccc(C(F)(F)F)c1)N1CCOCC1`
a: yes

q: // query: `CCOC(=O)c1[nH]c(C)c(CCC(=O)N2CCC(C(=O)NCCc3ccco3)CC2)c1C`
a: yes

====

Assay: gradient 5% acetonitrile 3 min, to 50% in 2 min, to 85% in 15 min, held 3 min, 100 µL/min
Conditions: column: Zorbax Extend-C18 2.1 x 50 mm; eluents: water / acetonitrile, 0.1% formic acid
What RP-LC retention time was measured for each of the following?
Numbers only; they are read as s.

q: Which RP-LC retention time value is on record for `O=C(NCc1cc(-c2ccco2)on1)c1ncc(-c2ccccc2)o1` ?
a: 863

q: // query: `Cc1ccc(NC(=O)NCc2ccnc(N3CCSCC3)c2)c(C)c1`
a: 631

q: // query: `CCc1nnc(-c2cc(NS(C)(=O)=O)c(C)s2)o1`
a: 747

q: // query: COc1ccc(CC(=O)N2CCC3(C2)C(=O)Nc2ccccc23)cc1Cl (stereo not given)
a: 761

q: // query: `Cc1ccccc1S(=O)(=O)N1CCC(Cc2nncn2-c2ccccc2)CC1`
a: 827

q: // query: `COc1cccc(CNC(=O)c2nnc(-c3ccc(S(=O)(=O)N4CCCC4)cc3)o2)c1`
a: 874

q: // query: `COc1ccc(S(=O)(=O)N2C[C@@H](F)C[C@H]2C(=O)N2CCOCC2)cc1OC`
a: 640

q: // query: `Cc1ccc(CNC(=O)C2CCN(c3cnc(N4CCCC4)nc3)CC2)cc1C`
a: 716

q: // query: `Cc1cc(NC(=O)c2cccn2-c2cccnc2)ccc1Br`
a: 881

q: // query: `CCN(CC)c1cc(CNC(=O)Nc2cc(OC)cc(OC)c2)ccn1`
a: 620

q: // query: `COCC(=O)Nc1ccc2nc(N3CCN(Cc4ccccc4OC)CC3)cc(C(=O)O)c2c1`
a: 573

q: // query: CCC(C)C(NC(=O)c1cccc(C)c1)C(=O)Nc1nc2ccccc2[nH]1 (stereo not given)
a: 765

q: // query: CN1C(=O)C2CCCCN2c2ccc(C(=O)NCCCN3CCCC3)cc21 (stereo not given)
a: 586

q: // query: `CCOc1ccccc1N1CCN(C(=O)c2csc(C(=O)NC3CC3)n2)CC1`
a: 790

q: // query: `Cc1cc(=O)n(CC(=O)N(C)c2ccccc2)c(N2CCCC2)n1`
a: 625

q: // query: CCCN(CC1CCOC1)S(=O)(=O)c1ccccc1C(F)(F)F (stereo not given)
a: 946

q: // query: `Cc1c(CCC(=O)NCC(=O)N[C@@H](C(=O)O)C(C)C)c(=O)oc2c(C)c(O)ccc12`
a: 636

q: // query: `COCCCNC(=O)N1CCCN(C2=NS(=O)(=O)C(c3ccccc3)=C2C)CC1`
a: 679

q: // query: `Cc1ccc(Nc2nc3ccncc3n(Cc3ccccc3)c2=O)cc1Cl`
a: 898

q: // query: `Cc1ccc(S(=O)(=O)N2CCCCC2)cc1-c1nnc(-c2ccccc2)o1`
a: 1130

q: // query: `Cc1cc(NCCCC(=O)NC2CCCCC2)n2nc(-c3cccnc3)nc2n1`
a: 646

q: // query: `Cn1ccc2c(cc(C(=O)NCc3ccc(C(F)(F)F)cc3)n2C)c1=O`
a: 754

q: // query: `CCc1cc(=O)n(CC(=O)NCc2cccc(OC)c2)c(N)n1`
a: 584

q: // query: `OCc1nnn(-c2ccccc2)c1CO`
a: 642

q: // query: `Cc1ccccc1OCC(=O)Nc1ccc2c(c1)N(S(=O)(=O)c1ccccc1)CCC2`
a: 1030

q: // query: `Cc1nc(-c2ccccc2)nc2c1CCC(=O)N2Cc1cccs1`
a: 1120

q: // query: `O=C(COc1ccc(Cl)cc1)Nc1nc(-c2ccc(S(=O)(=O)N3CCOCC3)cc2)cs1`
a: 1040

q: // query: `Cc1nc([C@@H]2CN(C(=O)c3cccs3)C[C@H]2C(N)=O)n[nH]1`
a: 562

q: // query: `Cn1nnc2ccc(-c3noc(-c4cc(F)ccc4Cl)n3)cc21`
a: 1060

q: // query: `Cc1cccc(NC(=O)Nc2c(-c3ccc(F)cc3)nc3ccccn23)c1C`
a: 697

q: // query: COC(=O)c1c(C)[nH]c(C(=O)N2CCCC(C(=O)NCCC3=CCCCC3)C2)c1C (stereo not given)
a: 825

q: // query: COc1ccc(C2C(C(=O)NCc3ccco3)c3ccccc3C(=O)N2C)cc1 (stereo not given)
a: 776

q: // query: `CCOC(=O)C1CCN(C(=O)CCC2CCN(c3cc(NC4CC4)ncn3)CC2)CC1`
a: 586

q: // query: CC(C)C(NC(=O)Nc1ccc(F)cc1)C(=O)N1CCc2ccccc21 (stereo not given)
a: 960

q: // query: `CCN(CC)C(=O)c1ccc2c(c1)N(CC(=O)N1CCN(c3ccccn3)CC1)C(=O)CO2`
a: 574

q: // query: `O=C(NC1CCN(Cc2ccccc2)CC1)c1cn2cc(Cl)ccc2n1`
a: 610

q: // query: `Cc1ccc(CNC(=O)c2nc(-c3oc4c(C)cccc4c3C)no2)o1`
a: 1080

q: // query: `CCN1C(=O)COc2ccc(-c3noc(-c4cnccn4)n3)cc21`
a: 802

q: // query: `CCc1noc(NC(C)=O)c1-c1ccc(C)c(S(=O)(=O)Nc2cccc(Cl)c2)c1`
a: 867

q: // query: `Cc1nnc([C@@H]2CC(F)(F)CN2C(=O)COc2ccccc2)o1`
a: 667

====

What RP-LC retention time was measured for each of the following?
Assay: gradient 5% acetonitrile 3 min, to 50% in 2 min, to 85% in 15 min, held 3 min, 100 µL/min
Settings: column: Zorbax Extend-C18 2.1 x 50 mm; eluents: water / acetonitrile, 0.1% formic acid

q: Which RP-LC retention time value is on record for `O=S(=O)(c1ccc(-n2cnnn2)cc1)N1CCN(c2ccccn2)CC1` ?
a: 596 s

q: // query: `O=C(NCCc1ccccc1)c1nnc(-c2ccc(S(=O)(=O)N3CCOCC3)cc2)o1`
a: 845 s

q: // query: CCCNC(=O)N1CCCC(c2nn(C)c(=O)n2CC)C1 (stereo not drawn)
a: 602 s

q: // query: COc1ccc(CCNC(=O)C2CN(S(C)(=O)=O)CC23CCCCC3)cc1OC (stereo not drawn)
a: 763 s

q: // query: `COC(=O)c1nc(NC(=O)Cn2nc3c(cc2=O)CCCC3)sc1Cc1ccccc1`
a: 868 s

q: // query: `O=C(c1ccc(CN2C(=O)CCn3nc(-c4ccccc4)cc32)cc1)N1CCN(c2ccccn2)CC1`
a: 638 s

q: // query: `CCc1nc(-c2cc(S(=O)(=O)NCC(=O)N3CCCC3)c(C)s2)no1`
a: 787 s

q: // query: `Cc1cccc(-c2nc(C3CCN(S(=O)(=O)c4ccc(F)cc4)CC3)no2)c1`
a: 1110 s

q: // query: Cc1cccc(OCCc2noc(C3CCN(S(=O)(=O)N(C)C)C3)n2)c1 (stereo not drawn)
a: 978 s

q: // query: COc1cc2c(cc1OC)C(C(=O)N1CCN(C)CC1)C(c1ccc(SC)cc1)N(C)C2=O (stereo not drawn)
a: 612 s

q: // query: `CCc1noc(-c2ccnc(-n3ncc(C(=O)NC4CCCC4)c3C)c2)n1`
a: 687 s

q: // query: `CCCn1cc(C2=CCN(S(=O)(=O)Cc3cccc(Cl)c3)CC2)c2cccnc21`
a: 1110 s

q: // query: O=C1CC(c2ccc3c(c2)OCO3)c2scc(S(=O)(=O)c3ccccc3)c2N1 (stereo not drawn)
a: 905 s

q: // query: `O=C(CN1CCN(Cc2nc(-c3ccc(F)cc3)cs2)CC1)NCc1ccco1`
a: 595 s

q: // query: `NC(=O)C1CCN(C(=O)CN2CCC(Cc3ccccc3)CC2)CC1`
a: 591 s

q: // query: `Cc1ccc2oc(-c3noc(C(=O)NCCCN4CCCC4)n3)c(C)c2c1`
a: 717 s

q: // query: `CCCCOc1ccc(NC(=O)NCCN2CCN(S(C)(=O)=O)CC2)cc1`
a: 600 s

q: // query: `O=C(Nc1cc(F)ccc1Cl)c1csc(-c2ccc(N3CCCC3)nc2)n1`
a: 994 s

q: // query: CCC(CO)Nc1nc(NCc2ccccc2)c2ncn(C(C)C)c2n1 (stereo not drawn)
a: 630 s

q: // query: CCOc1cc(C(=O)NC(C(=O)Nc2nc3ccccc3[nH]2)C(C)C)cc(OCC)c1OCC (stereo not drawn)
a: 824 s

q: // query: Cc1ccc(CNC(=O)C2(C)CCCN(C(=O)Nc3ccc(Cl)cc3)C2)cc1 (stereo not drawn)
a: 1010 s

q: // query: `COc1ccc(-c2nc3ncccn3c2Nc2ccc(C)c(Cl)c2)cc1`
a: 821 s

q: // query: `Cc1ccc(CNC(=O)Nc2cc3c(cc2N2CCCCC2)n(C)c(=O)n3C)cc1`
a: 610 s

q: // query: `Cc1ccc(CNC(=O)Cn2nc3c4cc(-c5cc(C)ccc5C)nn4ccn3c2=O)cc1`
a: 985 s

q: // query: O=C(c1ccco1)N1CCN(C(=O)C2CCCN(c3ncnc4c3nc3n4CCCCC3)C2)CC1 (stereo not drawn)
a: 657 s

q: // query: NC(=O)c1oc2ccccc2c1NC(=O)C1CCCCN1S(=O)(=O)c1cccs1 (stereo not drawn)
a: 825 s

q: // query: `Cc1ccc(NC(=O)Cn2nc3c(Oc4ccccc4C)nccn3c2=O)c(C)c1`
a: 873 s

q: // query: `Clc1cccc(-c2cc3c(N4CCN(Cc5ccc6c(c5)OCO6)CC4)nccn3n2)c1`
a: 820 s

q: // query: `COc1ccc(CN2C[C@@H]3C(=O)N(C)C(=O)[C@@H]3C2)c(OC)c1`
a: 587 s

q: // query: CC(=O)Nc1ccc2c(c1)CN(C(=O)c1ccccc1C(F)(F)F)C(C(=O)N(C)C)C2 (stereo not drawn)
a: 675 s

q: // query: CNC(=O)N1CCCC(c2nc(C(C)C)no2)CCNC(=O)CC1 (stereo not drawn)
a: 606 s

q: // query: `Cn1cnc2cc(CNC(=O)CCc3ccccc3)ccc21`
a: 604 s

q: // query: `CCn1c(=O)c(N2CCC(C(=O)NCCN3CCCCCC3)CC2)nc2cccnc21`
a: 646 s

q: // query: `Cc1noc(C)c1-c1ccc(S(=O)(=O)NC2CCCCC2)cc1`
a: 959 s

q: // query: Cc1ccc(N2CCC(NC(=O)c3ccc(Cl)s3)C2=O)cc1 (stereo not drawn)
a: 888 s

q: // query: `COc1ccccc1CC(=O)Nc1cnc(C)nc1`
a: 664 s

q: // query: `O=C(NC1CC1)c1ncoc1-c1ccccc1C(=O)N1CCCCC1`
a: 689 s

q: // query: `CCOc1ccc(NC(=O)Cn2c(=O)c(CCC(=O)NCC(C)C)nc3ccccc32)cc1`
a: 824 s
